system: Caenorhabditis elegans N2 infected with Nematocida parisii ERTm1; test: progeny production relative to DMSO uninfected control; higher = more progeny despite microsporidia infection (inhibition of infection with low host toxicity); conditions: infection time 6 days; 40 µM
Hi there, I'd appreciate the recorded progeny production for every entry that follows.
Give bare numbers, in %.

CCOc1ccc(C(=O)NCCc2ccccc2)cc1 = 6.06

Give progeny production for all compounds that follow.
1. O=C(Nc1nnc(-c2ccccc2)o1)c1ccc(F)cc1
2. CCN(CC)CCCC(C)Nc1ccnc2cc(Cl)ccc12 (configuration not stated)
3. C=C(C)n1c(=O)n(Cc2ccccc2C)c2ccccc21
4. CC(C)n1cnc2c(NCc3ccccc3)nc(NCc3ccccc3)nc21

Output line:
5.03
8.75
6.26
7.59

Give progeny production for all compounds that follow.
1. N=c1n(CCN2CCCCC2)c2ccccc2n1CC(O)COc1ccc(Cl)cc1Cl (configuration not stated)
2. CCCCC(CC)CNC(=N)NC(=N)NCCCCCCNC(=N)NC(=N)NCC(CC)CCCC (configuration not stated)
3. CCC(C)(C)c1ccc(CC(C)CN2C[C@@H](C)O[C@@H](C)C2)cc1 (some centres not stated)
4. CC(C)(C)c1cc(C(=O)/C(C#N)=N/Nc2cccc(Cl)c2)no1
5. O=S(=O)(NCB(O)O)c1cc2c(Cl)ccc(Cl)c2s1
6. C[C@@H]1O[C@@H]1P(=O)(O)O
7. O=C(O)C[C@H]1CC[C@H](c2ccc(-c3ccc(Nc4ccc(C(F)(F)F)nc4)cn3)cc2)CC1

Output line:
1: 5.53; 2: 5.25; 3: 4.64; 4: 4.44; 5: 4.07; 6: 4.36; 7: 4.2

Give progeny production for all compounds that follow.
1. COc1ccccc1NC(=O)c1ccccc1Sc1ccc([N+](=O)[O-])cc1
2. COc1cc(C)c2c(Oc3cccc(C(F)(F)F)c3)c(OC)cc(NC(C)CCCN)c2n1 (configuration not stated)
3. O=C(O)COc1cccc2c1CC[C@](O)(COC(=O)N(c1ccccc1)c1ccccc1)C2
4. CCOc1noc2cc(OCCC3CCN(c4ccc(C)nn4)CC3)ccc12
5. O=C(Nc1nnc(-c2ccc(Cl)cc2)o1)c1nc2ccccc2s1

Output line:
6.65
4.23
4.24
4.43
8.93
